Kindly supply the reported percentage damage caused to the plant, five-point scale, IPOHE values for the records listed here.
Test system: IPOHE
Test: Post-emergence Test, glasshouse, IPOHE
Type: in vivo
Conditions: 250 g/ha, evaluated after 13 days

Param item = Fc1cnc(Oc2cccc3c(Cl)nn(CCCC(F)(F)F)c23)nc1 ; retrieve measured percentage damage caused to the plant, five-point scale, IPOHE.
5 (5=81-100%)

Now the same for N#Cc1cc(Oc2ncc(Cl)cn2)c2c(cnn2CCCC(F)(F)F)c1
1 (1=0-20%)

Next compound: FC(F)(F)CCCn1nc(Br)c2c(Br)ccc(Oc3ncc(Cl)cn3)c21
1 (1=0-20%)

* * *

Tested on: IPOHE
Assay: Post-emergence Test, glasshouse, IPOHE
Format: in vivo
Details: 250 g/ha, evaluated after 13 days
Measurement label: percentage damage caused to the plant, five-point scale, IPOHE

Looking for the measured percentage damage caused to the plant, five-point scale, IPOHE of Cc1cnc(Oc2cccc3c(C(F)(F)F)nn(CCCC(F)(F)F)c23)nc1 , can you help?
3 (3=41-60%)

Now this one: N#Cc1ccc(Oc2ncc(Cl)cn2)c2c1c(Cl)nn2CCCC(F)(F)F
1 (1=0-20%)

Check FC(F)(F)CCn1ncc2cccc(Oc3ncc(Cl)cn3)c21 too.
2 (2=21-40%)

Consider next the compound FCCCCn1nc(Cl)c2cccc(Oc3ncc(Cl)cn3)c21 in the same way.
4 (4=61-80%)

What do you have for FC(F)(F)OCCn1nc(Cl)c2cccc(Oc3ncc(Cl)cn3)c21 ?
3 (3=41-60%)

* * *

Test system: ABUTH
Experiment: Post-emergence Test, glasshouse, ABUTH
Assay type: in vivo
Conditions: 250 g/ha, evaluated after 13 days
Measurement label: percentage damage caused to the plant, five-point scale, ABUTH

Form field: percentage damage caused to the plant, five-point scale, ABUTH recorded for COc1nn(CCCC(F)(F)F)c2c(Oc3ncc(Cl)cn3)cccc12 with ABUTH (enter value)
1 (1=0-20%)

Try C=C(C)Cn1nc(Cl)c2cccc(Oc3ncc(Cl)cn3)c21 next.
2 (2=21-40%)

Proceed to FC(F)(F)CCCn1nnc2cc(Cl)cc(Oc3ncc(Cl)cn3)c21
2 (2=21-40%)

Same question, CC(C)Cn1nc(Cl)c2cccc(Oc3ncc(Cl)cn3)c21 this time
2 (2=21-40%)

And what about the compound CC(C)=CCn1nc(Cl)c2cccc(Oc3ncc(Cl)cn3)c21 ?
3 (3=41-60%)

Lookup Fc1cc(Cl)cnc1Oc1ccc(Cl)c2cnn(CCCC(F)(F)F)c12
1 (1=0-20%)

And what about the compound Cc1cnc(Oc2cccc3c(Cl)nn(CCCC(F)(F)F)c23)nc1 ?
5 (5=81-100%)

// query: COCCn1nc(Cl)c2cccc(Oc3ncc(Cl)cn3)c21
4 (4=61-80%)

Likewise for FC(F)(F)CCCn1nc(Cl)c2c(Cl)cc(Cl)c(Oc3ncc(Cl)cn3)c21 ?
2 (2=21-40%)

* * *

System: ABUTH
Test: Post-emergence Test, glasshouse, ABUTH
Type: in vivo
Conditions: 250 g/ha, evaluated after 13 days
Measurement label: percentage damage caused to the plant, five-point scale, ABUTH

Please give the measured percentage damage caused to the plant, five-point scale, ABUTH for this molecule: CCCCCn1nc(Cl)c2cccc(Oc3ncc(Cl)cn3)c21
3 (3=41-60%)

Now this one: FC(F)(F)CCCn1ncc2cccc(Oc3ncc(Cl)cn3)c21
4 (4=61-80%)

For FC(F)CCCn1nc(Cl)c2cccc(Oc3ncc(Cl)cn3)c21 then?
4 (4=61-80%)

How about FC(F)(F)CCCn1nnc2cccc(Oc3ncc(Cl)cn3)c21 ?
3 (3=41-60%)

Also FC(F)(F)CCCn1ncc2c(Cl)cc(Cl)c(Oc3ncc(Cl)cn3)c21 , if possible.
1 (1=0-20%)

And FC(F)(F)CCCn1nc(Br)c2c(Br)ccc(Oc3ncc(Cl)cn3)c21 ?
4 (4=61-80%)

Please do the same for N#Cc1nn(CCCC(F)(F)F)c2c(Oc3ncc(Cl)cn3)cccc12 as well.
5 (5=81-100%)

Now the molecule FC(F)(F)OCCn1nc(Cl)c2cccc(Oc3ncc(Cl)cn3)c21
5 (5=81-100%)

Item: Cc1ccc2c(Cl)nn(CCCC(F)(F)F)c2c1Oc1ncc(Cl)cn1
3 (3=41-60%)

* * *

Tested on: IPOHE
Assay: Post-emergence Test, glasshouse, IPOHE
Assay type: in vivo
Conditions: 250 g/ha, evaluated after 13 days
I'd appreciate it if you could supply percentage damage caused to the plant, five-point scale, IPOHE values for the items below.

Which percentage damage caused to the plant, five-point scale, IPOHE is reported for this molecule? FC(F)(F)CCCn1nc(Br)c2cc(Br)cc(Oc3ncc(Cl)cn3)c21
1 (1=0-20%)

Follow-up entry: FCCn1nc(Cl)c2cccc(Oc3ncc(Cl)cn3)c21
1 (1=0-20%)

Check FC(F)(F)CCCn1nc(Cl)c2cc(Br)cc(Oc3ncc(Cl)cn3)c21 too.
1 (1=0-20%)

Next entry: FC(F)CCCn1nc(Cl)c2cccc(Oc3ncc(Cl)cn3)c21
5 (5=81-100%)

What do you get for N#Cc1cc(Cl)cnc1Oc1cccc2c(Cl)nn(CCCC(F)(F)F)c12 ?
2 (2=21-40%)

Same read-out for FC(F)(F)CCCn1nc(Cl)c2cccc(Oc3ncc(Cl)cn3)c21 ?
3 (3=41-60%)

Likewise for Cc1cnc(Oc2cccc3c(Cl)nn(CCCC(F)(F)F)c23)nc1 ?
3 (3=41-60%)

How about FC(F)(F)CCCn1nc(Cl)c2c(Br)ccc(Oc3ncc(Cl)cn3)c21 ?
1 (1=0-20%)

And Cc1ccc2c(Cl)nn(CCCC(F)(F)F)c2c1Oc1ncc(Cl)cn1 ?
4 (4=61-80%)

* * *

Tested on: ABUTH
Experiment: Post-emergence Test, glasshouse, ABUTH
Type: in vivo
Details: 250 g/ha, evaluated after 13 days
So I've got a bunch of compounds here, and I need their percentage damage caused to the plant, five-point scale, ABUTH values.

I would be grateful if you could share the reported percentage damage caused to the plant, five-point scale, ABUTH for CC(C)=CCCn1nc(Cl)c2cccc(Oc3ncc(Cl)cn3)c21 .
4 (4=61-80%)

And the next one, N#Cc1ccc(Oc2ncc(Cl)cn2)c2c1c(Cl)nn2CCCC(F)(F)F ?
1 (1=0-20%)

Similarly, FC(F)Cn1nc(Cl)c2cccc(Oc3ncc(Cl)cn3)c21 ?
3 (3=41-60%)

How about this compound: COc1cc(Oc2cccc3nnn(CCCC(F)(F)F)c23)ncn1
1 (1=0-20%)

// repeat for Cc1nn(CCCC(F)(F)F)c2c(Oc3ncc(Cl)cn3)cccc12 and report
4 (4=61-80%)

Same lookup for FC(F)(F)CCCn1nc(C(F)(F)F)c2cccc(Oc3ncc(Cl)cn3)c21 , please.
5 (5=81-100%)

N#Cc1cc(Cl)cnc1Oc1cccc2c(Cl)nn(CCCC(F)(F)F)c12 ?
4 (4=61-80%)

Now this one: N#Cc1ccc2cnn(CCCC(F)(F)F)c2c1Oc1ncc(Cl)cn1
2 (2=21-40%)

Cool, now N#Cc1ccc2c(Cl)nn(CCCC(F)(F)F)c2c1Oc1ncc(Cl)cn1
1 (1=0-20%)

* * *

System: Amaranthus retoflexus (AMARE)
Experiment: Pre-emergence Test, glasshouse, AMARE
Assay type: in vivo
Conditions: 250 g/ha, evaluated after 13 days
Provide the recorded percentage damage caused to the plant, five-point scale, AMARE for the entries that follow.

Quick check: percentage damage caused to the plant, five-point scale, AMARE on Amaranthus retoflexus (AMARE), item Cl/C=C/Cn1nc(Cl)c2cccc(Oc3ncc(Cl)cn3)c21 ?
3 (3=41-60%)

What do you have for COCCCn1nc(Cl)c2cccc(Oc3ncc(Cl)cn3)c21 ?
4 (4=61-80%)

And for C#CCn1nc(Cl)c2cccc(Oc3ncc(Cl)cn3)c21 ?
2 (2=21-40%)

Entry to check: FC(F)(F)CCCn1nc(C(F)(F)F)c2cccc(Oc3ncc(Cl)cn3)c21
5 (5=81-100%)

Input FC(F)(F)CCCn1nnc2cccc(Oc3ncc(Cl)cn3)c21
5 (5=81-100%)

Another: CCCCCCn1nc(Cl)c2cccc(Oc3ncc(Cl)cn3)c21
2 (2=21-40%)

And FC(F)(F)CCCn1ncc2cccc(Oc3ncc(Cl)cn3)c21 ?
4 (4=61-80%)

Try CCCCCn1nc(Cl)c2cccc(Oc3ncc(Cl)cn3)c21 next.
4 (4=61-80%)

How about this compound: FC(F)(F)CCCn1ncc2c(Cl)ccc(Oc3ncc(Cl)cn3)c21
5 (5=81-100%)

* * *

Test system: ABUTH
Assay: Post-emergence Test, glasshouse, ABUTH
Format: in vivo
Conditions: 250 g/ha, evaluated after 13 days
Measurement label: percentage damage caused to the plant, five-point scale, ABUTH

// lookup percentage damage caused to the plant, five-point scale, ABUTH for COc1cc(Oc2cccc3cnn(CCCC(F)(F)F)c23)ncn1 [Compound 1.012]
1 (1=0-20%)

Follow-up item: Cc1ccc2cnn(CCCC(F)(F)F)c2c1Oc1ncc(Cl)cn1 [Compound 1.044]
1 (1=0-20%)

Record: C=CCn1nc(Cl)c2cccc(Oc3ncc(Cl)cn3)c21 [Compound 1.065]
2 (2=21-40%)

// next record FC(F)(F)CCCn1nc(Cl)c2c(Cl)c(Br)cc(Oc3ncc(Cl)cn3)c21 [Compound 1.019]
1 (1=0-20%)

Do the same for FC(F)(F)CCCCn1nc(Cl)c2cccc(Oc3ncc(Cl)cn3)c21 [Compound 1.068] please
4 (4=61-80%)

Moving on to Cl/C=C/Cn1nc(Cl)c2cccc(Oc3ncc(Cl)cn3)c21 [Compound 1.069]
4 (4=61-80%)

One more compound: FC(F)(F)CCCn1nnc2c(Cl)ccc(Oc3ncc(Cl)cn3)c21 [Compound 1.072]
1 (1=0-20%)

Repeat with Fc1cc(Cl)cnc1Oc1cccc2c(Cl)nn(CCCC(F)(F)F)c12 [Compound 1.032]
3 (3=41-60%)

Let us now turn to FC(F)(F)CCCn1nc(Cl)c2cccc(Oc3ncc(Cl)cn3)c21 [Compound 1.005]
5 (5=81-100%)

Note, next up: CCCn1nc(Cl)c2cccc(Oc3ncc(Cl)cn3)c21 [Compound 1.061]
2 (2=21-40%)

FC(F)(F)CCCn1ncc2c(Br)ccc(Oc3ncc(Cl)cn3)c21 [Compound 1.025] ?
2 (2=21-40%)

And COCCCn1nc(Cl)c2cccc(Oc3ncc(Cl)cn3)c21 [Compound 1.060] ?
3 (3=41-60%)

And the next one, N#Cc1cc(Cl)cnc1Oc1cccc2cnn(CCCC(F)(F)F)c12 [Compound 1.014] ?
4 (4=61-80%)

Another compound: FCCn1nc(Cl)c2cccc(Oc3ncc(Cl)cn3)c21 [Compound 1.062]
2 (2=21-40%)

Subsequent entry: Fc1cnc(Oc2cccc3c(C(F)(F)F)nn(CCCC(F)(F)F)c23)nc1 [Compound 1.071]
5 (5=81-100%)

And C#CCn1nc(Cl)c2cccc(Oc3ncc(Cl)cn3)c21 [Compound 1.059] ?
2 (2=21-40%)

And the next one, N#Cc1cc(Oc2ncc(Cl)cn2)c2c(c1)c(Cl)nn2CCCC(F)(F)F [Compound 1.030] ?
1 (1=0-20%)

Also FC(F)(F)CCn1nc(Cl)c2cccc(Oc3ncc(Cl)cn3)c21 [Compound 1.035] , if possible.
5 (5=81-100%)
